Study system: EP2 receptor (Homo sapiens)
Sequence (P43116 whole entry): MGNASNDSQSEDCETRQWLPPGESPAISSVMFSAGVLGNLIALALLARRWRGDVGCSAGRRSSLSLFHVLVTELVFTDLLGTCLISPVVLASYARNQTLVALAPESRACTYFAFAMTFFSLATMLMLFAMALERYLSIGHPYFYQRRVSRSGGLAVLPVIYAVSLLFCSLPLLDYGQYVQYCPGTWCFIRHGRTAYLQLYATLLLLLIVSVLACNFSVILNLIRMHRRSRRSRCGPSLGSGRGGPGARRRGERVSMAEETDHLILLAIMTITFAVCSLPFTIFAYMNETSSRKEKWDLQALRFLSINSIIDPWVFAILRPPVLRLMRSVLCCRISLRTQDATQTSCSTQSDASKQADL
pKi: −log10 of the molar value.
Measurement name: pKi

Molecule	Measurement name	Data value
N#C[C@@H]1C[C@@H](O)[C@H](/C=C/CC(O)C2(Cc3ccc(Cl)s3)CCC2)[C@H]1C/C=C\CCCC(=O)O (stereo partly shown)	pKi	6.94
